Every entry's value here was drawn from patent US7786141B2.

# tgt: M1 muscarinic receptor (Homo sapiens, UniProt P11229)
# Construct: expressed in transfected cells; host or cells: CHO (M1-CHO)
# Sequence (P11229 whole entry): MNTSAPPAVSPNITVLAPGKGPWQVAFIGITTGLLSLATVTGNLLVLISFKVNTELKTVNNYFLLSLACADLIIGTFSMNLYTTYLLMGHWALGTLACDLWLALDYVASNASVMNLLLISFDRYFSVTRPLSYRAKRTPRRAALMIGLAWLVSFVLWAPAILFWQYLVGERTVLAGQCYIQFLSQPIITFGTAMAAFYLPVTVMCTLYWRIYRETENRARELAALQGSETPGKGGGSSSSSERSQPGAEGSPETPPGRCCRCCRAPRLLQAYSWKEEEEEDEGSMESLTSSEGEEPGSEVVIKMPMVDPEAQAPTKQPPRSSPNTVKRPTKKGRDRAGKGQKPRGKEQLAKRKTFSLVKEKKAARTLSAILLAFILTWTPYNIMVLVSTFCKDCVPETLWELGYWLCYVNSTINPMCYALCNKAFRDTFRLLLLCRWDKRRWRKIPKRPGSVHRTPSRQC
# assay-remarks: Functional mobilization of intracellular calcium (FLIPR) in M1-CHO cells
# Format: cell-based
# test-context: M1 receptor, calcium mobilization; read-out: M1 Efficacy
Please provide measured Emax for the entries that follow.

Data request: GET /values?readout=Emax&system=M1 muscarinic receptor (Homo sapiens, UniProt P11229)&item= CCOC(=O)N1CCC(N2CCC3(CC2)CN(C(=O)CC(C)(C)C)c2ccc(F)cc23)CC1
Data returned: > 85%

Data request: GET /values?readout=Emax&system=M1 muscarinic receptor (Homo sapiens, UniProt P11229)&item= COCCOC(=O)N1C2CCC1CC(N1CCC3(CC1)CN(C(=O)OC1CCC1)c1ccc(F)cc13)C2 (centres unmarked)
Data returned: 65 to 85%

Data request: GET /values?readout=Emax&system=M1 muscarinic receptor (Homo sapiens, UniProt P11229)&item= CCC1CCC(N2CCC3(CC2)C[C@H](NC(C)=O)c2ccccc23)CC1 (some centres unmarked)
Data returned: < 65%

Data request: GET /values?readout=Emax&system=M1 muscarinic receptor (Homo sapiens, UniProt P11229)&item= CC(=O)N[C@H]1CC2(CCN(C3CC4CCC(C4)C3)CC2)c2ccccc21 (some centres unmarked)
Data returned: < 65%

Data request: GET /values?readout=Emax&system=M1 muscarinic receptor (Homo sapiens, UniProt P11229)&item= CCOC(=O)N1CCC(N2CCC3(CC2)CN(C(C)=O)c2ccc(-c4ccc(C)cc4)cc23)CC1
Data returned: 65 to 85%

Data request: GET /values?readout=Emax&system=M1 muscarinic receptor (Homo sapiens, UniProt P11229)&item= CCCOC(=O)N1CCC(CN2CCC3(CC2)CN(C(C)=O)c2ccc(F)cc23)CC1
Data returned: 65 to 85%

Data request: GET /values?readout=Emax&system=M1 muscarinic receptor (Homo sapiens, UniProt P11229)&item= CCOC(=O)N1CCC(N2CCC3(CC2)CN(C(=O)C(C)(C)C)c2ccc(F)cc23)CC1
Data returned: < 65%

Data request: GET /values?readout=Emax&system=M1 muscarinic receptor (Homo sapiens, UniProt P11229)&item= C=Cc1ccc2c(c1)C1(CCN(C3CCN(C(=O)OCC)CC3)CC1)CN2C(C)=O
Data returned: < 65%

Data request: GET /values?readout=Emax&system=M1 muscarinic receptor (Homo sapiens, UniProt P11229)&item= CCOC(=O)N1CCC(N2CCC3(CC2)CN(C(C)=O)c2ccc(-c4ccsc4)cc23)CC1
Data returned: 65 to 85%

Data request: GET /values?readout=Emax&system=M1 muscarinic receptor (Homo sapiens, UniProt P11229)&item= CCOC(=O)N1CCC(CN2CCC3(CC2)CC(=O)Nc2ccccc23)CC1
Data returned: 65 to 85%

Data request: GET /values?readout=Emax&system=M1 muscarinic receptor (Homo sapiens, UniProt P11229)&item= CCOC(=O)N1C2CCC1CC(N1CCC3(CC1)CNc1ccc(F)cc13)C2 (centres unmarked)
Data returned: < 65%

Data request: GET /values?readout=Emax&system=M1 muscarinic receptor (Homo sapiens, UniProt P11229)&item= O=C1Nc2ccccc2C12CCN(C1CC3CCC1C3)CC2 (centres unmarked)
Data returned: 65 to 85%

Data request: GET /values?readout=Emax&system=M1 muscarinic receptor (Homo sapiens, UniProt P11229)&item= CCOC(=O)N1CCC(N2CCC3(CC2)CN(C(=O)N2CCOCC2)c2ccc(F)cc23)CC1
Data returned: < 65%

Data request: GET /values?readout=Emax&system=M1 muscarinic receptor (Homo sapiens, UniProt P11229)&item= CN(C)C(=O)N1CC2(CCN(C3CCN(C(=O)O[C@@H]4CCOC4)CC3)CC2)c2cc(F)ccc21
Data returned: > 85%

Data request: GET /values?readout=Emax&system=M1 muscarinic receptor (Homo sapiens, UniProt P11229)&item= Clc1ccc2c(c1)C1(CCN(C3CCCCC3)CC1)CO2
Data returned: 65 to 85%

Data request: GET /values?readout=Emax&system=M1 muscarinic receptor (Homo sapiens, UniProt P11229)&item= CCC(=O)CCN1CC2(CCN(C[C@@H]3C[C@H]4C=C[C@H]3C4)CC2)c2cc(F)ccc21
Data returned: < 65%

Data request: GET /values?readout=Emax&system=M1 muscarinic receptor (Homo sapiens, UniProt P11229)&item= CCOC(=O)N1C2CCC1CC(N1CCC3(CC1)CN(C(=O)OCCOC)c1ccc(F)cc13)C2 (centres unmarked)
Data returned: 65 to 85%
